tested on: A375 Sensitive cells; assay: Viability test, trypan blue exclusion, A375 Sensitive cells; format: cell-based, human; conditions: Homo sapiens, A-375; 5 μM, 48 h; viable cells as percentage of DMSO control; read-out: Viab A375 5 μM/ 48 h
Lab note: anything with viability at 5 µM below 50% is marked label 1; values at 50% or higher are marked label 0.

> print(dat)
                                   molecule        assayed.system  class.label
1  N=C(NC(=N)c1cccc(F)c1)Nc1nc2ccccc2s1 [MTF 346]  A375 Sensitive cells      label 1
2  Nc1nc(Nc2ccccc2SSc2ccccc2Nc2nc(N)nc(-c3cccc([N+](=O)[O-])c3)n2)nc(-c2cccc([N+](=O)[O-])c2)n1 [MTF 445]  A375 Sensitive cells      label 1
3  N=C(NC(=N)c1ccncc1)Nc1nc(-c2cccc([N+](=O)[O-])c2)cs1 [MTF 261]  A375 Sensitive cells      label 0
4  Nc1nc(Nc2ccccc2SSc2ccccc2Nc2nc(N)nc(-c3ccc(Cl)cc3)n2)nc(-c2ccc(Cl)cc2)n1 [MTF 327]  A375 Sensitive cells      label 1
5  N=C(NC(=N)c1cccc(Cl)c1)Nc1nc2ccccc2s1 [MTF 243]  A375 Sensitive cells      label 1
6  Cc1nc(NC(=N)NC(=N)c2cccc(Cl)c2)sc1C [MTF 301]  A375 Sensitive cells      label 1
7  Nc1nc(Nc2ccccc2SSc2ccccc2Nc2nc(N)nc(-c3c(Br)cncc3Br)n2)nc(-c2c(Br)cncc2Br)n1 [MTF 456]  A375 Sensitive cells      label 0
8  CSc1ccccc1Nc1nc(N)nc(C(Cl)(Cl)Cl)n1 [MTF 316]  A375 Sensitive cells      label 0

---

tested on: A375 Sensitive cells; assay: Viability test, trypan blue exclusion, A375 Sensitive cells; assay type: cell-based, human; settings: Homo sapiens, A-375; 10 μM, 24 h; viable cells as percentage of DMSO control; read-out: Viab A375 10 μM/ 24 h
readout: viability at 10 µM (%)

> print(dat)
                                     smiles             readout  numeric.result
1  N=c1nc(C(Cl)(Cl)Cl)nc(Nc2ccc(Cl)cc2O)[nH]1  viability at 10 µM            30.9
2     N=C(NC(=N)c1ccc(Cl)cc1)Nc1nc2ccccc2s1  viability at 10 µM              83
3       CSc1ccccc1Nc1nc(N)nc(C(Cl)(Cl)Cl)n1  viability at 10 µM             104
4        COc1ccc(C(=N)NC(=N)Nc2nc(C)cs2)cc1  viability at 10 µM             142
5  Nc1nc(Nc2ccccc2SSc2ccccc2Nc2nc(N)nc(-c3cccc(F)c3)n2)nc(-c2cccc(F)c2)n1  viability at 10 µM            10.8

---

tested on: A375 Sensitive cells; experiment: Viability test, trypan blue exclusion, A375 Sensitive cells; assay type: cell-based, human; details: Homo sapiens, A-375; 5 μM, 48 h; viable cells as percentage of DMSO control; read-out: Viab A375 5 μM/ 48 h
readout: viability at 5 µM (%)

> print(dat)
                                     smiles  numeric.result
1  Nc1nc(Nc2ccccc2SSc2ccccc2Nc2nc(N)nc(-c3ccc(I)cc3)n2)nc(-c2ccc(I)cc2)n1             9.4
2  Nc1nc(Nc2ccccc2SSc2ccccc2Nc2nc(N)nc(-c3ccccc3Cl)n2)nc(-c2ccccc2Cl)n1            54.8
3  Nc1nc(Nc2ccccc2SSc2ccccc2Nc2nc(N)nc(-c3ccc4c(c3)OCO4)n2)nc(-c2ccc3c(c2)OCO3)n1            67.8
4  N=C(NC(=N)c1cccnc1)Nc1nc(-c2cccc([N+](=O)[O-])c2)cs1              32

---

Entries annotated with measured viability at 10 µM
test system: A375 Sensitive cells; test: Viability test, trypan blue exclusion, A375 Sensitive cells; format: cell-based, human; conditions: Homo sapiens, A-375; 10 μM, 24 h; viable cells as percentage of DMSO control; read-out: Viab A375 10 μM/ 24 h
readout: viability at 10 µM (%)

> print(dat)
                                    compound             readout  numeric.result
 1  Cc1nc(NC(=N)NC(=N)c2ccccc2Br)sc1C [MTF 295]  viability at 10 µM            66.1
 2  Cc1ccc2nc(NC(=N)NC(=N)c3cccc(Br)c3)sc2c1 [MTF 265]  viability at 10 µM              84
 3  Cc1nc(NC(=N)NC(=N)c2ccncc2)sc1C [MTF 299]  viability at 10 µM            72.8
 4  N=C(NC(=N)c1ccnc(Cl)c1)Nc1nc2ccccc2s1 [MTF 380]  viability at 10 µM            36.2
 5  Nc1nc(Nc2ccc(Cl)cc2SSc2cc(Cl)ccc2Nc2nc(N)nc(C(Cl)(Cl)Cl)n2)nc(C(Cl)(Cl)Cl)n1 [MTF 233]  viability at 10 µM               7
 6  Nc1nc(Nc2cc([N+](=O)[O-])ccc2O)nc(C(Cl)(Cl)Cl)n1 [MTF 377]  viability at 10 µM            22.7
 7  N=C(NC(=N)c1cccc(Br)c1)Nc1nc2ccccc2s1 [MTF 242]  viability at 10 µM            13.4
 8  N=C(NC(=N)c1cccc(F)c1)Nc1nc2ccccc2s1 [MTF 346]  viability at 10 µM            43.2
 9  Nc1nc(Nc2ccccc2SSc2ccccc2Nc2nc(N)nc(-c3ccccc3)n2)nc(-c2ccccc2)n1 [MTF 326]  viability at 10 µM            12.9
10  Nc1nc(Nc2ccccc2SSc2ccccc2Nc2nc(N)nc(-c3ccccc3[N+](=O)[O-])n2)nc(-c2ccccc2[N+](=O)[O-])n1 [MTF 463]  viability at 10 µM            56.1
11  N=C(NC(=N)c1ccc([N+](=O)[O-])cc1)Nc1nc2ccccc2s1 [MTF 398]  viability at 10 µM              91
12  Nc1nc(Nc2ccccc2SSc2ccccc2Nc2nc(N)nc(-c3ccc(I)cc3)n2)nc(-c2ccc(I)cc2)n1 [MTF 328]  viability at 10 µM            27.8
13  N=C(NC(=N)c1ccncc1)Nc1nc(-c2cccc([N+](=O)[O-])c2)cs1 [MTF 261]  viability at 10 µM            71.9
14  Nc1nc(Nc2ccccc2SSc2ccccc2Nc2nc(N)nc(-c3ccc(Cl)cc3)n2)nc(-c2ccc(Cl)cc2)n1 [MTF 327]  viability at 10 µM            23.7
15  N=C(NC(=N)c1ccccc1Cl)Nc1nc2ccccc2s1 [MTF 244]  viability at 10 µM            84.9
16  N=C(NC(=N)c1cccc(Cl)c1)Nc1nc(-c2cccc([N+](=O)[O-])c2)cs1 [MTF 277]  viability at 10 µM            76.4
17  CSc1ccccc1Nc1nc(N)nc(C(Cl)Cl)n1 [MTF 317]  viability at 10 µM             109
18  N=C(NC(=N)c1ccccc1F)Nc1nc2ccccc2s1 [MTF 249]  viability at 10 µM            14.4

---

system: A375 Sensitive cells; assay: Viability test, trypan blue exclusion, A375 Sensitive cells; format: cell-based, human; conditions: Homo sapiens, A-375; 5 μM, 48 h; viable cells as percentage of DMSO control; read-out: Viab A375 5 μM/ 48 h
# viability at 5 µM per record follows
readout: viability at 5 µM (%)

> print(dat)
                                      smiles        assayed.system  numeric.result
 1  N=C(NC(=N)c1ccc(C(F)(F)F)cc1)Nc1nc2ccccc2s1  A375 Sensitive cells            68.1
 2  Nc1nc(Nc2ccccc2SSc2ccccc2Nc2nc(N)nc(-c3cccs3)n2)nc(-c2cccs2)n1  A375 Sensitive cells            12.1
 3           Cc1nc(NC(=N)NC(=N)c2ccncc2)sc1C  A375 Sensitive cells            76.6
 4     COc1ccc(C(=N)NC(=N)Nc2nc3ccccc3s2)cc1  A375 Sensitive cells             100
 5         N=C(NC(=N)c1ccncc1)Nc1nc2ccccc2s1  A375 Sensitive cells             6.9
 6        N=C(NC(=N)c1cscc1Br)Nc1nc2ccccc2s1  A375 Sensitive cells            56.2
 7    N#Cc1cccc(C(=N)NC(=N)Nc2nc3ccccc3s2)c1  A375 Sensitive cells             6.6
 8  N=C(NC(=N)c1ccc2c(c1)OCO2)Nc1nc2ccccc2s1  A375 Sensitive cells            40.6
 9  Nc1nc(Nc2ccc(Cl)cc2SSc2cc(Cl)ccc2Nc2nc(N)nc(C(Cl)(Cl)Cl)n2)nc(C(Cl)(Cl)Cl)n1  A375 Sensitive cells             8.9
10  N=c1nc(C(Cl)(Cl)Cl)nc(Nc2cc(Cl)ccc2O)[nH]1  A375 Sensitive cells            69.2
11  Nc1nc(Nc2ccccc2SSc2ccccc2Nc2nc(N)nc(-c3ccccc3)n2)nc(-c2ccccc2)n1  A375 Sensitive cells            27.9
12            Cc1csc(NC(=N)NC(=N)c2cccnc2)n1  A375 Sensitive cells            21.6
13  Nc1nc(Nc2ccccc2SSc2ccccc2Nc2nc(N)nc(-c3cccnc3)n2)nc(-c2cccnc2)n1  A375 Sensitive cells            73.9
14   N=C(NC(=N)c1ncc(Cl)cc1Cl)Nc1nc2ccccc2s1  A375 Sensitive cells            85.6
15           Cc1nc(NC(=N)NC(=N)c2ccccn2)sc1C  A375 Sensitive cells            59.8
16      Cc1ccc(C(=N)NC(=N)Nc2nc3ccccc3s2)cc1  A375 Sensitive cells              91
17  CC1(C)C=Cc2cc(C(=N)NC(=N)Nc3nc4ccccc4s3)ccc2O1  A375 Sensitive cells            65.1
18           Cc1nc(NC(=N)NC(=N)c2cccnc2)sc1C  A375 Sensitive cells            73.6
19  COc1cccc(-c2nc(N)nc(Nc3ccccc3SSc3ccccc3Nc3nc(N)nc(-c4cccc(OC)c4)n3)n2)c1  A375 Sensitive cells            21.6
